Kindly supply the reported boiling point values for the records listed here.
Give bare numbers, in °C.

Known results for compounds:
compound	unit_abbreviation	boiling point
CC(C)C(=O)O	°C	154
CCCCOC(=O)CCCC	°C	186
CC(=O)c1ccc(C(C)C)cc1	°C	254

Each of the following entries comes with a recorded value; kindly state boiling point for each.
1. Cc1ccc(CBr)cc1
2. CC(C)CCC#N
3. N#Cc1ccccc1Br
4. CCOS(=O)OCC
5. O=C=Nc1ccccc1Cl

1: 220; 2: 156; 3: 252; 4: 158; 5: 200

Each of the following entries comes with a recorded value; kindly state boiling point for each.
1. CS(=O)(=O)Cl
2. Cc1cocn1
3. CCCCCCC(C(=O)OCC)C(=O)OCC
4. FC(F)(F)C(F)(C(F)(F)F)C(F)(F)F

[162, 88, 269, 0]

Each of the following entries comes with a recorded value; kindly state boiling point for each.
1. C=CCNc1ccccc1
2. CCc1ccc(C)c(C)c1

1. 219
2. 190

Data origin: the OPERA property sets (Mansouri et al. 2018)
